Assayed Target: Cytochrome P450 2C19 (Homo sapiens, UniProt P33261)
Sequence (P33261 whole entry): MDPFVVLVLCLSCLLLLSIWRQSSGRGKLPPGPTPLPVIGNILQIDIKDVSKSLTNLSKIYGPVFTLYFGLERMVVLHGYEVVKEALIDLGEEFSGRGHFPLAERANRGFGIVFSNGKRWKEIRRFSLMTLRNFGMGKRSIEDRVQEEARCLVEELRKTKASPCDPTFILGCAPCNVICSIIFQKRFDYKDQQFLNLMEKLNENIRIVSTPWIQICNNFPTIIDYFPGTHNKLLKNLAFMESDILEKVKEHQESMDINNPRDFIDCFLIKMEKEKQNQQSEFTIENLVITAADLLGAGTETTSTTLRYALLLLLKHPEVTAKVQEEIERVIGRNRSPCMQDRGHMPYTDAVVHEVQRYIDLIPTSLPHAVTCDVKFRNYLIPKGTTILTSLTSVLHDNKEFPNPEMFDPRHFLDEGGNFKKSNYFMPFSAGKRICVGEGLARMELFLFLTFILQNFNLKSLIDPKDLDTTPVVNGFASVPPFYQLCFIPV
Experiment Summary: Inhibition of human hepatic recombinant CYP2C19 using cocktail of substrate by LC-MS/MS analysis
Property Label: IC50

Report IC50 for "O=C(Nc1ccc2[nH]ncc2c1)[C@]12ON=C(c3cccnc3)[C@H]1[C@@H]1CC[C@H]2C1" please.
> 10 µM

###

Assayed Target: Cytochrome P450 2D6 (Homo sapiens)
Sequence (P10635 whole entry): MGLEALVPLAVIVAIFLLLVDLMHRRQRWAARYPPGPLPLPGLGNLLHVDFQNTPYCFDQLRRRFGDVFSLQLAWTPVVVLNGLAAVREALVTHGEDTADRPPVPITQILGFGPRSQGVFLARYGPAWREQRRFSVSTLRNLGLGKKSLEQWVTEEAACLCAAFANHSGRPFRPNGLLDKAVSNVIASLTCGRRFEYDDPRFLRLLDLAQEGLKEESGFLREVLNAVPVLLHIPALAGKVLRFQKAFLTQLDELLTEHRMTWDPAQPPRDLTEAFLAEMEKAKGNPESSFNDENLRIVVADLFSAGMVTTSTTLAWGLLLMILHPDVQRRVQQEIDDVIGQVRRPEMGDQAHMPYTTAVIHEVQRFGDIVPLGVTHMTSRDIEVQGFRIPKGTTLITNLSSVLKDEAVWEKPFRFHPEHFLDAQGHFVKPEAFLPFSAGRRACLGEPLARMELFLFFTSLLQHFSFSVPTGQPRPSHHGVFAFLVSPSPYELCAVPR
Experiment Summary: Inhibition of human hepatic recombinant CYP2D6 using cocktail of substrate by LC-MS/MS analysis
Property Label: IC50

Report IC50 for "O=C(Nc1ccc2[nH]ncc2c1)[C@]12ON=C(c3cccnc3)[C@H]1[C@@H]1CC[C@H]2C1" please.
> 10 µM

###

Assayed Target: Cytochrome P450 11B2, mitochondrial (Homo sapiens, UniProt P19099)
Sequence (P19099 whole entry): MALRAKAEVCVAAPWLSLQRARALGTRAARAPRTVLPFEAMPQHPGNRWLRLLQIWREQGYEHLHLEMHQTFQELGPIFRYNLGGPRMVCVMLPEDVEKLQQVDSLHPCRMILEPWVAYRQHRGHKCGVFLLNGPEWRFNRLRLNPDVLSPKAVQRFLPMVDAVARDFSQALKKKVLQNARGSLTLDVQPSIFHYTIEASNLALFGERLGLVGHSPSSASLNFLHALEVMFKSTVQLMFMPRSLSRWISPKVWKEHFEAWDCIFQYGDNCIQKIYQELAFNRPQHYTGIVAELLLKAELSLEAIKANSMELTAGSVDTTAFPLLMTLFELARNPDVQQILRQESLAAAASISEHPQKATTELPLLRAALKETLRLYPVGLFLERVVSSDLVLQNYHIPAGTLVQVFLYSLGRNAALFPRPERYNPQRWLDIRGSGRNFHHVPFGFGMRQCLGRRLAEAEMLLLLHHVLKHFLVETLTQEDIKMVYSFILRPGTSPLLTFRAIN
Experiment Summary: Inhibition of human CYP11B2 expressed in Chinese hamster V79 MZh cells using [14C]-deoxycorticosteron as substrate measured after 6 hrs by phosphoimager analysis
Assign pIC50 to each entry below.
// field semantics: pIC50 = negative decimal log of concentration (mol/L)

Report pIC50 for "COc1ccccc1NC(=O)[C@]12ON=C(c3cccnc3)[C@H]1[C@@H]1CC[C@H]2C1" please.
5.23

Report pIC50 for "O=C(Nc1cccc(Cl)c1)[C@]12ON=C(c3cccnc3)[C@H]1[C@@H]1CC[C@H]2C1" please.
5.18

Report pIC50 for "COc1ccc(NC(=O)[C@]23ON=C(c4cccnc4)[C@H]2[C@@H]2CC[C@H]3C2)cc1" please.
5.40

Report pIC50 for "O=C(Nc1ccc2[nH]ncc2c1)[C@]12ON=C(c3cncc(-c4ccoc4)c3)[C@H]1[C@@H]1CC[C@H]2C1" please.
6.10

Report pIC50 for "O=C(Nc1ncccn1)[C@]12ON=C(c3cccnc3)[C@H]1[C@@H]1CC[C@H]2C1" please.
5.11

Report pIC50 for "O=C(Nc1ccc2[nH]ccc2c1)[C@]12ON=C(c3cccnc3)[C@H]1[C@@H]1CC[C@H]2C1" please.
5.64

Report pIC50 for "O=C(Nc1ccc2[nH]ncc2c1)[C@]12ON=C(c3cncc(-c4ccc(F)cc4)c3)[C@H]1[C@@H]1CC[C@H]2C1" please.
6.95

Report pIC50 for "O=C(Nc1ccc(F)cc1)[C@]12ON=C(c3cccnc3)[C@H]1[C@@H]1CC[C@H]2C1" please.
5.52

Report pIC50 for "O=C(Nc1cccc(Cl)c1Cl)[C@]12ON=C(c3cccnc3)[C@H]1[C@@H]1CC[C@H]2C1" please.
5.29

Report pIC50 for "O=C(Nc1ccc2[nH]ncc2c1)[C@]12ON=C(c3cncc(-c4cccc(C(F)(F)F)c4)c3)[C@H]1[C@@H]1CC[C@H]2C1" please.
6.40

Report pIC50 for "O=C(Nc1ccc2[nH]ncc2c1)[C@]12ON=C(c3cccnc3)[C@H]1[C@@H]1CC[C@H]2C1" please.
5.95

Report pIC50 for "Cc1cccc(NC(=O)[C@]23ON=C(c4cccnc4)[C@H]2[C@@H]2CC[C@H]3C2)c1" please.
5.02

###

Property Label: IC50 (nM)
Answer format: numeric, nM implied, no suffix.

Query the reported IC50 for Cytochrome P450 11B1, mitochondrial (Rattus norvegicus); item: "O=C(Nc1ccc2[nH]ncc2c1)[C@]12ON=C(c3cccnc3)[C@H]1[C@@H]1CC[C@H]2C1"
25

Where these numbers come from: ChEMBL document CHEMBL5126611
